Could you please report measured DC50 for the items listed next?
Molecular target: HiBit-KRAS^G12C (Homo sapiens, UniProt P01116, G12C)
Sequence (P01116 1-186 isoform P01116-2 G12C limits assumed): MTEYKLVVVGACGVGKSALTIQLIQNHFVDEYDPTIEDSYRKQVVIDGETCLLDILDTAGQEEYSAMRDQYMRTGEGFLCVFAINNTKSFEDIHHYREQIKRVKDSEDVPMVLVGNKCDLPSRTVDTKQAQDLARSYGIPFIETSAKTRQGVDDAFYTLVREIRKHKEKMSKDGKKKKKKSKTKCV
Test: HiBit degradation assay in MiaPaCa-2 HiBit-KRas^G12C cells
Format: cell-based
Details: read-out: KRas^G12C-HiBiT (MiaPaCa; 0.5% DMSO) IC50; MiaPaCa-2 HiBit-KRas^G12C cells; 0.5% DMSO; 24 hours

• C=CC(=O)N1CCN(c2nc(OCCN3CCC4(CC3)CN(c3cc([C@@H](C(=O)N5C[C@H](O)C[C@H]5C(=O)N[C@@H](C)c5ccc(-c6scnc6C)cc5)C(C)C)on3)C4)nc3c(F)c(-c4cc(O)cc5ccccc45)c(Cl)cc23)C[C@@H]1CC#N (atropisomer, axis not shown) [Compound 108] = 100 to 1000 nM

Attention now turns to another entry.
Prompt: Requested field: DC50. Item: C=CC(=O)N1CCN(c2nc(OCCN3CCC4(CC3)CN(c3cc([C@H](C(=O)N5C[C@H](O)C[C@H]5C(=O)N[C@@H](C)c5ccc(-c6ccnn6C)cc5)C(C)C)on3)C4)nc3c(F)c(-c4cc(O)cc5ccccc45)c(Cl)cc23)C[C@@H]1CC#N (atropisomer, axis not shown)
Completion: 100 to 1000 nM

###

Biological target: HiBit-KRAS^G12C (Homo sapiens, UniProt P01116, G12C)
Assay: HiBit degradation assay in MiaPaCa-2 HiBit-KRas^G12C cells
Format: cell-based
Conditions: read-out: KRas^G12C-HiBiT (MiaPaCa; 0.5% DMSO) IC50; MiaPaCa-2 HiBit-KRas^G12C cells; 0.5% DMSO; 24 hours
Assay Metric: DC50

Below: 3 molecules and their reported DC50.
* C=CC(=O)N1CCN(c2nc(OCCN3CCC(COc4cc([C@@H](C(=O)N5C[C@H](O)C[C@H]5C(=O)N[C@@H](C)c5ccc(-c6ccnn6C)cc5)C(C)C)on4)CC3)nc3c(F)c(-c4cc(O)cc5ccccc45)c(Cl)cc23)C[C@@H]1CC#N | > 1 µM
* C=CC(=O)N1CCN(c2nc(OCCN3CCC(F)(COc4cc([C@H](C(=O)N5C[C@H](O)C[C@H]5C(=O)N[C@@H](C)c5ccc(-c6scnc6C)cc5)C(C)C)on4)CC3)nc3c(F)c(-c4cc(O)cc5ccccc45)c(Cl)cc23)C[C@@H]1CC#N | 0.1 to 1 µM
* C=C(F)C(=O)N1CCN(c2nc(OCCN3CCC(COc4cc([C@H](C(=O)N5C[C@H](O)C[C@H]5C(=O)N[C@@H](C)c5ccc(-c6scnc6C)cc5)C(C)C)on4)CC3)nc3c(F)c(-c4cc(O)cc5ccccc45)c(Cl)cc23)C[C@@H]1CC#N (atropisomer, axis not shown) [Compound 166] | > 1 µM

Shifting focus to the molecule that follows.
Prompt: Give the measured DC50 of C=C(F)C(=O)N1CCN(c2nc(OCCN3CCC4(CC3)CN(c3cc([C@H](C(=O)N5C[C@H](O)C[C@H]5C(=O)N[C@@H](C)c5ccc(-c6scnc6C)cc5)C(C)C)on3)C4)nc3c(F)c(-c4cc(O)cc5ccccc45)c(Cl)cc23)C[C@@H]1CC#N (atropisomer, axis not shown) .
Completion: < 0.1 µM

###

Target: HiBit-KRAS^G12C (Homo sapiens, UniProt P01116, G12C)
Assay: HiBit degradation assay in SW1573 HiBit-KRas^G12C cells
Assay type: cell-based
Set-up: expressed in transfected cells; host or cells: SW1573 (clone E6), modified pcDNA3.1 vector, TK promoter
Conditions: read-out: KRas^G12C-HiBiT (SW1573; 0.5% DMSO) IC50***; SW1573 HiBit-KRas^G12C, 0.5% DMSO, 24 hours
Assay Metric: DC50

The following molecules have reported results that may help.
* C=CC(=O)N1CCN(c2nc(OCCN3CCC(C)(COCC(=O)N[C@H](C(=O)N4C[C@H](O)C[C@H]4C(=O)N[C@@H](C)c4ccc(-c5scnc5C)cc4)C(C)(C)C)CC3)nc3c(F)c(-c4cc(O)cc5ccccc45)c(Cl)cc23)C[C@@H]1CC#N | 0.1 to 1 µM
* C=CC(=O)N1CCN(c2nc(OC[C@@H]3C[C@@H](OCCOc4cc(-c5scnc5C)ccc4CNC(=O)[C@@H]4C[C@@H](O)CN4C(=O)[C@H](c4cc(C)no4)C(C)C)CN3C)nc3c2CCN(c2cccc4ccccc24)C3)C[C@@H]1CC#N | > 1 µM
* C=CC(=O)N1CCN(c2nc(OCCN3CCC(COc4cc([C@H](C(=O)N5C[C@H](O)C[C@H]5C(=O)N[C@@H](C)c5ccc(-c6scnc6C)cc5)C(C)C)on4)CC3)nc3c(F)c(-c4cc(O)cc5ccccc45)c(Cl)cc23)CC1 (atropisomer, axis not shown) [Compound 147] | 0.1 to 1 µM
* C=CC(=O)N1CCN(c2nc(OCCN3CCC(F)(COc4cc([C@@H](C(=O)N5C[C@H](O)C[C@H]5C(=O)N[C@@H](C)c5ccc(-c6scnc6C)cc5)C(C)C)on4)CC3)nc3c(F)c(-c4cc(O)cc5ccccc45)c(Cl)cc23)C[C@@H]1CC#N | > 1 µM
* C=C(F)C(=O)N1CCN(c2nc(OCCN3CCC(COc4cc([C@H](C(=O)N5C[C@H](O)C[C@H]5C(=O)N[C@@H](C)c5ccc(-c6scnc6C)cc5)C(C)C)on4)CC3)nc3c(F)c(-c4cc(O)cc5ccccc45)c(Cl)cc23)C[C@@H]1CC#N (atropisomer, axis not shown) [Compound 166] | 0.1 to 1 µM
* C=CC(=O)N1CCN(c2nc(OCCN3CCC(C)(COc4cc([C@H](C(=O)N5C[C@H](O)C[C@H]5C(=O)N[C@@H](C)c5ccc(-c6scnc6C)cc5)C(C)C)on4)CC3)nc3c(F)c(-c4cc(O)cc5ccccc45)c(Cl)cc23)C[C@@H]1CC#N | < 0.1 µM
* C=CC(=O)N1CCN(c2nc(OCCN3CCC(COCC(=O)N[C@H](C(=O)N4C[C@H](O)C[C@H]4C(=O)N[C@@H](C)c4ccc(-c5scnc5C)cc4)C(C)(C)C)CC3)nc3c(F)c(-c4nc(NC)cc5ccccc45)c(Cl)cc23)C[C@@H]1CC#N | > 1 µM

Please examine the following record next.
Prompt: Given the entry C=CC(=O)N1CCN(c2nc(OCCN3CCC(COc4cc([C@H](C(=O)N5C[C@H](O)C[C@H]5C(=O)N[C@@H](C)c5ccc(-c6scnc6C)cc5)C(C)C)on4)CC3)nc3c(F)c(-c4cc(O)cc5ccccc45)c(Cl)cc23)C[C@@H]1CC#N [Compound 169] , what DC50 was observed with HiBit-KRAS^G12C (Homo sapiens, UniProt P01116, G12C)?
Completion: < 0.1 µM
